Target: PAK2 (Homo sapiens, UniProt Q13177)
Sequence (Q13177 whole entry): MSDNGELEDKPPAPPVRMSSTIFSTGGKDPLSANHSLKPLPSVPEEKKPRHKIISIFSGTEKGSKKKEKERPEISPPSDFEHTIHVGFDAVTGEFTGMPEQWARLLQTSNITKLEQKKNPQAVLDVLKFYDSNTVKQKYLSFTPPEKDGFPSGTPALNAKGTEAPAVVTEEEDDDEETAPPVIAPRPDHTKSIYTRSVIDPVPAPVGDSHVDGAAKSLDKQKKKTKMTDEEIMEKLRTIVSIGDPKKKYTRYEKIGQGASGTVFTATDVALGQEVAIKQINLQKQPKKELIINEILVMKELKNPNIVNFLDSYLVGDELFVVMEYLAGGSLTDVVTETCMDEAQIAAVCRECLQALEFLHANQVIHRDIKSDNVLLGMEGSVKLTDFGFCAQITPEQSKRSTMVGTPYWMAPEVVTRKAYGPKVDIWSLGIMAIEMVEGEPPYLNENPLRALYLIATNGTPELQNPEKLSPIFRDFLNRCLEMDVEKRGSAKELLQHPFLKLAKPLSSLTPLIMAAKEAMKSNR
pIC50: −log10 of the molar value.
REPORTED_ENDPOINT: pIC50

Sample records with pIC50:
CC(C)CNc1ccc(-c2ccnc(Nc3ccc(N4CCN(C)CC4)cc3)n2)cn1
5.00 to 6.00
O=c1c(-c2ccccc2)cc2cnc(Nc3ccc(N4CCNCC4)cc3)nc2n1Cc1ccccc1C(F)(F)F
> 6.00
NCCNc1ccc(-c2ccnc(Nc3ccc(N4CCNCC4)cc3)n2)cn1
5.00 to 6.00

Kindly consider the entry below.
Measured pIC50 (PAK2 (Homo sapiens, UniProt Q13177)), entry `Cc1cc(Nc2nccc(-c3ccc(NCCN4CCCCC4)nc3)n2)ccc1N1CCN(C)CC1` : 5.00 to 6.00

* * *

For PAK4 (Homo sapiens), measured IC50 is reported for the entries below.

Sample records with IC50:
COc1cccc2c1C(n1c(=O)ccc3cnc(Nc4ccc(N5CCN(C)CC5)cc4)nc31)CC2 (centres unmarked) [Compound 1]
1 to 10 µM
CN1CCN(c2ccc(Nc3nccc(-c4ccc(NCCN5CCOCC5)nc4)n3)cc2)CC1 [Compound 99]
1 to 10 µM
CN1CCN(c2ccc(Nc3ncc4ccc(=O)n(Cc5ccccc5S(=O)(=O)N5CCOCC5)c4n3)cc2)CC1 [Compound 74]
< 1 µM
CN1CCN(c2ccc(Nc3ncc4cc(-c5ccccc5)c(=O)n(Cc5ccccc5C(F)(F)F)c4n3)cc2)CC1 [Compound 119]
> 10 µM
CN1CCN(c2ccc(Nc3ncc4ccc(=O)n(CCc5ccccc5C(F)(F)F)c4n3)cc2)CC1 [Compound 66]
< 1 µM

IC50 recorded for this molecule, CN1CCN(c2ccc(Nc3ncc4ccc(=O)n(Cc5ccccc5-c5cc(C(F)(F)F)nn5C)c4n3)cc2)CC1 [Compound 76] , is > 10 µM

IC50 recorded for this molecule, CN1CCN(CCNc2ccc(-c3ccnc(Nc4ccc(N5CCN(C)CC5)cc4)n3)cn2)CC1 [Compound 103] , is > 10 µM

IC50 recorded for this molecule, COc1cccc(F)c1Cn1c(=O)ccc2cnc(Nc3ccc(N4CCN(C)CC4)cc3)nc21 [Compound 61] , is < 1 µM

* * *

Target: UniProt Q13153
Sequence (Q13153 whole entry): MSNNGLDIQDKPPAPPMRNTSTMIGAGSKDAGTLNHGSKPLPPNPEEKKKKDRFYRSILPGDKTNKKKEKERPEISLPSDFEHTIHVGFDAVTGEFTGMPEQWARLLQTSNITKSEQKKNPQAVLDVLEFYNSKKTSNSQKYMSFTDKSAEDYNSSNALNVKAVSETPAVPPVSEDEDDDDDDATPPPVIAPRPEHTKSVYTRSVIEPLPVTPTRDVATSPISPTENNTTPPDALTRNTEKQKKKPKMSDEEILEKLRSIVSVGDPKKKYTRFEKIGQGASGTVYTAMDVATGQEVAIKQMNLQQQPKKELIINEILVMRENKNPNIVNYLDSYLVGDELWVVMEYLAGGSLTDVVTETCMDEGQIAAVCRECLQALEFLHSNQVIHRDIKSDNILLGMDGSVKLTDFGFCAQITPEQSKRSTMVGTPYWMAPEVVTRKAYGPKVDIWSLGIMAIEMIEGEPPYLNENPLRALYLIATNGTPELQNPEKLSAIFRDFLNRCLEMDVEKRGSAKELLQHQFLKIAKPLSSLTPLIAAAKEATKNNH
REPORTED_ENDPOINT: IC50

Sample records with IC50:
CN1CCN(c2ccc(Nc3ncc4ccc(=O)n(Cc5cccc(Cl)c5)c4n3)cc2)CC1
1000 to 10000 nM
CN1CCN(c2ccc(N(C)c3nccc(-c4ccc(NCCN)nc4)n3)cc2)CC1
> 10000 nM

Measured IC50 (UniProt Q13153), entry `COc1cccc(F)c1Cn1c(=O)ccc2cnc(Nc3ccc(N4CCN(C)CC4)cc3)nc21` : < 1000 nM

Measured IC50 (UniProt Q13153), entry `CN1CCN(c2ccc(Nc3ncc4ccc(=O)n(Cc5c(F)cccc5Br)c4n3)cc2)CC1` : < 1000 nM

* * *

For PAK2 (Homo sapiens, UniProt Q13177), measured pIC50 is reported for the entries below.
pIC50: −log10 of the molar value.

Sample records with pIC50:
CN1CCN(c2ccc(Nc3ncc4ccc(=O)n(Cc5ccccc5C5CC5)c4n3)cc2)CC1
> 6.00
COc1cccc2c1C(n1c(=O)ccc3cnc(Nc4ccc(N5CCN(C)CC5)cc4)nc31)CC2 (stereo not shown)
< 5.00
CN1CCN(c2ccc(Nc3ncc4ccc(=O)n(Cc5c(Cl)cccc5-c5ccccc5)c4n3)cc2)CC1
< 5.00

Kindly consider the entry below.
Measured pIC50 (PAK2 (Homo sapiens, UniProt Q13177)), entry `CN1CCN(c2ccc(Nc3ncc4ccc(=O)n(Cc5c(Cl)cccc5-c5cccs5)c4n3)cc2)CC1` : < 5.00

Hey, just so you know, these numbers are from patent US8674095B2.
